Measured target: human DLL3 on DLL3-expressing tumor cell lines (human) (UniProt Q9NYJ7)
Sequence (Q9NYJ7 27-618 limits assumed): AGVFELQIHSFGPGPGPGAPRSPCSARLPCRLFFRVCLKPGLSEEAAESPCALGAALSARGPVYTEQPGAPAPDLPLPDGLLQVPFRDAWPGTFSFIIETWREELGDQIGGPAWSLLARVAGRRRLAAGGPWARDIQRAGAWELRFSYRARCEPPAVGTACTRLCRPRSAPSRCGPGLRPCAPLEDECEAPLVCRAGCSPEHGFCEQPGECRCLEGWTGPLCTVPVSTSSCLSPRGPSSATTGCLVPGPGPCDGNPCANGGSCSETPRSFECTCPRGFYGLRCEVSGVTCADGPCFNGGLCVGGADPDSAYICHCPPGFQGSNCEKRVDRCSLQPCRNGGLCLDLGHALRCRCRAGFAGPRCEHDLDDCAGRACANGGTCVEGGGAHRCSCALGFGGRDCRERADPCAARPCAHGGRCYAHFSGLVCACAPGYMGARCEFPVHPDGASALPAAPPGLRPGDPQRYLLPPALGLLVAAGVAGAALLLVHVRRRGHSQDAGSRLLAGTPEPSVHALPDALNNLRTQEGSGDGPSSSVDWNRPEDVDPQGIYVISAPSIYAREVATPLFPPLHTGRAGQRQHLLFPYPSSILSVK
Procedure text: cell-based or functional assay
Metric: DMS-153 TDCC EC50 (nM)
Numbers only; they are read as nM.

{"columns": ["Binder", "DMS-153 TDCC EC50 / nM"],
 "data": [
  ["2E05-M106Y anti-DLL3 trispecific protein (protein, not shown: large carriers) EVQLVESGGGLVQPGGSLTLSCVASGSPSSINAYGWYRRAPGKQRELVAGISSDGSKVYSDSVKGRFTISRDNAKNSVYLQMNSLRAEDTAVYYCYYFRTVSGSSYSYWGQGTLVTVSS", 0.063]
]}

Q: Indicate the recorded DMS-153 TDCC EC50 value for this binder: 2E05-M106Q anti-DLL3 trispecific protein (protein, not shown: large carriers) EVQLVESGGGLVQPGGSLTLSCVASGSPSSINAYGWYRRAPGKQRELVAGISSDGSKVYSDSVKGRFTISRDNAKNSVYLQMNSLRAEDTAVYYCYYFRTVSGSSQSYWGQGTLVTVSS
A: 0.041

Ref: patent US20240141072A1
